# TARGET_OR_SYSTEM: hNaV1.7 (Homo sapiens)
# Construct: expressed in transfected cells
# Sequence (Q15858 1-1977 isoform Q15858-3): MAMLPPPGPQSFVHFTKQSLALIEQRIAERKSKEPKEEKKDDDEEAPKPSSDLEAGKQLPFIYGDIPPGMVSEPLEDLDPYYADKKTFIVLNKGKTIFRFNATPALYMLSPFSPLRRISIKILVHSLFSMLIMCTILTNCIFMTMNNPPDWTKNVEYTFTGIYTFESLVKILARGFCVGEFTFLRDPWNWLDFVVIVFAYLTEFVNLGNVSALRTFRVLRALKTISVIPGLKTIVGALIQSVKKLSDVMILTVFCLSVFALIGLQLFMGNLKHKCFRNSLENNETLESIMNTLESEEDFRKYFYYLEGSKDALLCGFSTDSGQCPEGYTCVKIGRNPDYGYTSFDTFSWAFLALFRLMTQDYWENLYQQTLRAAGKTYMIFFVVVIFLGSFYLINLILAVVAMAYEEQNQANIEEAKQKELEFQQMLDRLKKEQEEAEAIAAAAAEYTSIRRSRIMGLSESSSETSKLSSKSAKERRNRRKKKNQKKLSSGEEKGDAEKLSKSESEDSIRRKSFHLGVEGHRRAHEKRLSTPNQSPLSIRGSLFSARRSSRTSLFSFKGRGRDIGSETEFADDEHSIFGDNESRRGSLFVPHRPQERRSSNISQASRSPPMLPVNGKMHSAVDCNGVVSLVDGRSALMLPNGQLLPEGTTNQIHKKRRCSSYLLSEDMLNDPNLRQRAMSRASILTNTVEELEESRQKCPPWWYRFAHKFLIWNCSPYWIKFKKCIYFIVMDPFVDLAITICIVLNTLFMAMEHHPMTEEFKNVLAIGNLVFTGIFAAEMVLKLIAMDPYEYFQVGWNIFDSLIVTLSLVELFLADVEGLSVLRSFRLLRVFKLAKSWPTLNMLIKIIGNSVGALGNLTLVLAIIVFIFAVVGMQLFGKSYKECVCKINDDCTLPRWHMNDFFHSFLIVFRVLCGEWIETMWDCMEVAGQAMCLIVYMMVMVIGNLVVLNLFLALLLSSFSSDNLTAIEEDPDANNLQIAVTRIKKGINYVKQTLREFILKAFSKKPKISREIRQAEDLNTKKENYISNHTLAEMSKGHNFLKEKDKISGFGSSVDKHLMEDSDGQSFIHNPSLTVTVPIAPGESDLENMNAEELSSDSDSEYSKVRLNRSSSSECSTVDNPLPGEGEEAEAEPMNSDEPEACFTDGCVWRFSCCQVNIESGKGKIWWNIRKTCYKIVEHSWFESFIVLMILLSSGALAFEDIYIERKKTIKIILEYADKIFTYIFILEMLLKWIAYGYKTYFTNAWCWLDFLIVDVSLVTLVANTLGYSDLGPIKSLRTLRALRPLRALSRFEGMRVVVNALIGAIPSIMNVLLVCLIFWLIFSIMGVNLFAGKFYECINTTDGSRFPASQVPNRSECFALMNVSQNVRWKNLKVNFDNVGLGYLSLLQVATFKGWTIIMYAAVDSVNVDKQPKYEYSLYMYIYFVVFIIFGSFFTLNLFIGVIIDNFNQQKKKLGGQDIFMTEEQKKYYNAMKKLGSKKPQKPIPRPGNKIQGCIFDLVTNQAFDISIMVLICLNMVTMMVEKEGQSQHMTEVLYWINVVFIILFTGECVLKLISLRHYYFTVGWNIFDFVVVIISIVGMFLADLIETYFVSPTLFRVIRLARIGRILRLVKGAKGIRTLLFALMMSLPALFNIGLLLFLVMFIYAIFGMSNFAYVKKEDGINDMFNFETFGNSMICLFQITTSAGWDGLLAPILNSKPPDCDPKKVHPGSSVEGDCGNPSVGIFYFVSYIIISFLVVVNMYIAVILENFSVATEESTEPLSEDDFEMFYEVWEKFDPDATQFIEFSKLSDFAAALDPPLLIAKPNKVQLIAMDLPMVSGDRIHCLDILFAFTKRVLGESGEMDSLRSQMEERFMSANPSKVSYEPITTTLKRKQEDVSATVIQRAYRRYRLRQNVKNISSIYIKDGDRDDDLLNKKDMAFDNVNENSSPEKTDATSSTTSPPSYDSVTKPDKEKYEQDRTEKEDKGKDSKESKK
# ASSAY_OVERVIEW: Patch voltage clamp electrophysiology (EP), Syncropatch 384PE, Nav1.7 in CHO cells;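 note: Nav1.7 stably expressed from cDNA in CHO cells, holding potential of −50 mV kept for the entire experiment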
# Type: cell-based
# MEASUREMENT_CONDITIONS: holding potential −50 mV, inhibition based on 7.5 min compound incubation, read-out: hNaV1.7 EP_SP
Counter-ions that a name gives are not always drawn.
READOUT_NAME: log10 of IC50 (log10 of the value in nM)
Values are log10 of IC50 in nM.

Query CC(C)c1cc(C(=O)NS(=O)(=O)N2CCC(OC3CN(C)C3)CC2)c(F)cc1OCC1CCCC1 yields log10 of IC50 of 1.59

The reported value for CN1CCCC(OC2CCN(S(=O)(=O)NC(=O)c3cc(Cl)c(OCC4CCCC4)cc3F)CC2)C1 (centres unmarked) in terms of log10 of IC50 is 2.23

Sure, the documented log10 of IC50 for O=C(NS(=O)(=O)c1ccc(OC2CC2)cc1)c1cc(Cl)c(OCC2CCCC2)cc1F is 2.11

So, O=C(NS(=O)(=O)c1ccc(Cn2cncn2)cc1)c1cc(Cl)c(OCC2CCCC2)cc1F ? Its log10 of IC50 was 2.63

Given item O=C(NS(=O)(=O)N1CC[C@@H]2CCC[C@H]21)c1cc(Cl)c(OCC2CCCC2)cc1F (single isomer, unassigned) , the value recorded as its log10 of IC50 is 1.15

// sample O=C(NS(=O)(=O)N1CCC(OCc2ccccc2)CC1)c1cc(Cl)c(OCC2CCCC2)cc1F , its log10 of IC50 was 2.23

get_value(item= O=C(NS(=O)(=O)N1CC[C@@H](OC2CCNCC2)C1)c1cc(Cl)c(OCC2CCCC2)cc1F (single isomer, unassigned) , readout=log10 of IC50) returns 2.62

Note to self: log10 of IC50 recorded for O=C(NS(=O)(=O)CC1Cc2ccccc2C1)c1cc(Cl)c(OCC2CCCC2)cc1F was 2.11

log10 of IC50 in this record for CN(C)[C@H]1CCCC[C@@H]1Nc1ccc(S(=O)(=O)NC(=O)c2cc(Cl)c(OCC3CCCC3)cc2F)cc1 [Example 64, formate] : 2.46

Sample O=C(NS(=O)(=O)c1ccc(OCC2CCCN2)cc1)c1cc(Cl)c(OCC2CCCC2)cc1F (centres unmarked) ; log10 of IC50 observed: 2.56

Entry O=C(NS(=O)(=O)N1CCCc2ccccc21)c1cc(Cl)c(OCC2CCCC2)cc1F , log10 of IC50 reported as 1.89

The value of log10 of IC50 measured for the compound O=C(NS(=O)(=O)c1ccc(NCc2ccccc2)cc1)c1cc(Cl)c(OCC2CCCC2)cc1F turned out to be 2.84

The recorded log10 of IC50 for entry O=C(NS(=O)(=O)c1ccc(OCc2cccc(F)c2)cc1)c1cc(Cl)c(OCC2CCCC2)cc1F equals 2.34

Reported log10 of IC50 ( N[C@@]12C[C@@H]1CN(S(=O)(=O)NC(=O)c1cc(Cl)c(OCC3CCCC3)cc1F)C2 (single isomer, unassigned) [Example 218, 2,2,2-trifluoroacetate] ) = 2.75

Entry CN(C)[C@H]1CCCC[C@@H]1Nc1ccc(S(=O)(=O)Nc2nc3ccc(OCC4CCCC4)cc3s2)c(F)c1 [Example 96, formate] ; log10 of IC50 = 0.94
